test: Compound was tested for its ability to displace [3H]8-OH-DPAT from 5-hydroxytryptamine 1A receptor in pig cortex
Parameter measured: IC50 (nM)
Numbers only, in nM.

Query :: Would you kindly share the measured IC50 for CN(C)CCc1c[nH]c2ccc(-n3cncn3)cc12 ?
Result :: 25

====

biological target: 5-hydroxytryptamine receptor 3A/3B (Rattus norvegicus, UniProt P35563+Q9JJ16); test: Compound was tested for its ability to displace [3H]-Q-ICS 205-930 from 5-hydroxytryptamine 3 receptor in rat cortex homogenates
Parameter measured: pIC50
One number for each entry, as −log10 of the molar value.

Give me pIC50 for each of these compounds, listed below.
1. CN1CCC(c2c[nH]c3ccc(-n4cnnc4)cc23)CC1
2. CN(C)CCc1c[nH]c2ccc(Cn3cncn3)cc12

Result ::
1. 5.57
2. 5.39

====

experiment: Compound was tested for its ability to displace [3H]mesulergine from 5-hydroxytryptamine 2C receptor in pig cortex
Parameter measured: IC50 (nM)
Give bare numbers, in nM.

Query :: Name the recorded IC50 for CN(C)CCc1c[nH]c2ccc(-n3cncn3)cc12 .
Result :: 500

====

Target: 5-hydroxytryptamine receptor 3A/3B (Rattus norvegicus, UniProt P35563+Q9JJ16)
Sequence (P35563 whole entry): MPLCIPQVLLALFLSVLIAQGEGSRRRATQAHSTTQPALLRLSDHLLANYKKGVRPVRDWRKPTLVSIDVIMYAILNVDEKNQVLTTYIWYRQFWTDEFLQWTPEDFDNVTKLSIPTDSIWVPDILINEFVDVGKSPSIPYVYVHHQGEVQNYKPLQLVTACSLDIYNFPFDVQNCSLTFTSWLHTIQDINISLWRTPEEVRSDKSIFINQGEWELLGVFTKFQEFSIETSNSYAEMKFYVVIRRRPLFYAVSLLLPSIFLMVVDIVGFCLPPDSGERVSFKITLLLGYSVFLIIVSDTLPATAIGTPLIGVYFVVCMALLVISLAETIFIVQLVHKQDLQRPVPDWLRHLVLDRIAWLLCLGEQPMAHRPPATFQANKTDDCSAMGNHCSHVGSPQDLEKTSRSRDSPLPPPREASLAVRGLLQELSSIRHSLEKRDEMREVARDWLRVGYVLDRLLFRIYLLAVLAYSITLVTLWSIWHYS
Sequence (Q9JJ16 whole entry): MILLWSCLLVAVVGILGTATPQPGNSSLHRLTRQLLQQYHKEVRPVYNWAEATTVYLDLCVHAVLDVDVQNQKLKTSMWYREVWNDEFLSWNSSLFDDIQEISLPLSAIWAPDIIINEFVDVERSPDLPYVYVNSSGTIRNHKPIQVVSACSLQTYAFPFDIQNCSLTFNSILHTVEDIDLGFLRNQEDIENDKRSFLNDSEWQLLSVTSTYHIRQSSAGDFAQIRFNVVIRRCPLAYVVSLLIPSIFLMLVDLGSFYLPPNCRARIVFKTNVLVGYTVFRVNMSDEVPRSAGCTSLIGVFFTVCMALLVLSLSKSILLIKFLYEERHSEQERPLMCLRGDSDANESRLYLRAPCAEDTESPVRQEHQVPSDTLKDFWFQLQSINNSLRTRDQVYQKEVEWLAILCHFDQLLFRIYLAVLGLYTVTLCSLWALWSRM
Test: ChEBML_3165
Protocol: Compound was tested for its ability to displace [3H]-Q-ICS 205-930 from 5-hydroxytryptamine 3 receptor in rat cortex homogenates
Parameter measured: IC50

Query :: Reported IC50 for CN(C)CCc1c[nH]c2ccc(-n3cnnc3)cc12 : what is it?
Result :: > 10 µM
